# measurement.notes: folding stability dG unfold from trypsin proteolysis; higher = more stable
assay.readout: folding stability dG unfold (kcal/mol)
Lab book: enter the figure in kcal/mol, no units written.

Inquiry: Can you share its folding stability dG unfold? I mean this sequence: SAGGAEEIRKELGISPEEKVTVKLVVPEGGRPREFTVEMKPDELEKVLEELGVPPEKLEITEVEVIEESAGG [r13_681_JUSTAS]
Reply text: -1.39

Inquiry: Repeat for the following sequence: SAGGSAGIKAVLNLGDKPVLVLIEPLPDGSFPVIAIFADDGSKVEKVIPASDIGELLSLDPDKLTFSAGGSA [r15_629_TrMRF]
Reply text: 0.859

Inquiry: And what about the sequence SAGGSAGGTIPSDYSVKELKVGGKKYVIVRYPDGIVELYSVEGNKKTLLRTVDTDPNASVSISGSAGGSAGG [r6_476_JUSTAS] ?
Reply text: 1.73

Inquiry: Now the same for SAGGKTKVIVVKVKPEMTVEEIAKKLAEELKKKGKKVKVEVKVIEKLPNGELYVKVTVKDGKLTIEPSAGGS [r8_7_TrROS_Hall]
Reply text: 1.12

Inquiry: Record: SAGGSAGGSEEIKKAIEEALKKMKPGEEKEVTIEIYDKKTNKKIAKIKIRIRRKKDGKLEIEFSAGGSAGGS [r20_151_TrROS_Hall]
Reply text: 4.01

Inquiry: Cool, now SAGGSMVVTVSTDSTSEPTTVITITIPPELGNLTDEEKKAIAEEIAKKYPNTKFTFTPTTITITRKSAGGSA [r2_256_JUSTAS]
Reply text: 1.77

Inquiry: SAGGALDAIKNIAEKFGFPEIEDIDIDPDNGWLSFRFRGPEPVYIKIPWKPDKNGNLPVNIEVYPMDDSAGG [r13_410_TrROS] ?
Reply text: 1.48

Inquiry: Entry SAGGSAGGSSSATLAADETATLRFRVTLTFGSGVRSGTADLSGSVSATVEVDVEIEVRNLADDSAGGSAGGS [r12_668_TrMRF] please
Reply text: 3.32

Inquiry: What about this sequence? SAGGSAGGEPRELEAEVEVIEFPPTGVALAVIRVNDGAEPRLIPVPFDAPEDVTPEELAKKILGSAGGSAGG [r6_20_TrMRF]
Reply text: -0.826

Inquiry: // query: SAGKVEIVVTYPDGSKAVIDSDNPLVFTITDPDGNSSTISGTGFDEALLKIVELLKEKTGKPVEKVEIKSAG [r5_119_TrMRF]
Reply text: 0.377

Inquiry: Can you check SAGGSAGGWRIKIMPMGGKKKKIPIDSPEEIIDKIQKEAKEDGLPGNVRITVEYNGQKRTFTIRSAGGSAGG [r6_532_TrROS] next?
Reply text: 1.41

Inquiry: What would you report for SAGLEDAQKEKRFVIKIEIRHPNGEKVKMTIAFKPGDPEDIRDELRKMGMPPDDLNERNPNLKIDEIEPSAG [r5_430_TrROS] ?
Reply text: 0.646

Inquiry: What about SAGGSAGGSKSKKYIEIDFSNLTEIKFNPNTNYATAIFKDKGKIYIAKIHFLPNGKAIAEVFDSAGGSAGGS [r12_839_TrMRF] ?
Reply text: 1.67

Inquiry: Next: SGMMRTIVLKIPIEEARKLLGDPNKPVSEEELKALVEKLAKEKGLDVEEIKVEKLPDGTYVVTVLVPDLGSA [r9_52_JUSTAS]
Reply text: 3.06
